Test system: Rattus norvegicus
Method notes: Antihypertensive activity in spontaneous hypertensive rat assessed as change in systolic blood pressure at 100 mg/kg, po dosed at 0 hrs on day 1, 2 and 3 measured on day 3 by indirect tail-cuff method
Type: functional, Artery
Binary call on Activity with cut-off -10 mmHg: strictly below means Met, and equality or higher means Not met.

Decide: Activity of c1ccc(OC2CCN(CCc3c[nH]c4ccccc34)CC2)cc1 strictly below -10 mmHg?
Met

Further, for Clc1cccc(OC2CCN(CCc3c[nH]c4ccccc34)CC2)c1 ?
Not met

Further, for Fc1ccc(OC2CCN(CCc3c[nH]c4ccc(OCc5ccccc5)cc34)CC2)cc1 ?
Met

These measurements were taken from ChEMBL document CHEMBL3244144.
